Could you please report measured surface tension liquid-gas for the items listed next?
Conditions: 313.15 K, Pendant drop shape
Numbers after ± are expanded uncertainties.

1. CCCCn1cc[n+](CCCCCCO)c1.[Cl-] [1-butyl-3-(6-hydroxyhexyl)-1H-imidazolium chloride]; 28.35 ± 0.56 mN/m
2. CCn1cc[n+](CCCCCCO)c1.[Cl-] [1-ethyl-3-(6-hydroxyhexyl)-1H-imidazolium chloride]; 38.75 ± 0.66 mN/m

Parameter requested: surface tension liquid-gas. Apply to each item below.
1. OCCCCCCn1cc[nH+]c1.[Cl-] [1-(6-hydroxyhexyl)imidazolium chloride]
2. Cn1cc[n+](CCCCCCO)c1.[Cl-] [3-(6-hydroxyhexyl)-1-methylimidazolium chloride]

stdout:
1. 47.75 ± 0.75 mN/m
2. 46.65 ± 0.73 mN/m

====

Could you please report measured viscosity for the items listed next?
Details: 343.15 K; 101.33 kPa; Liquid
Answers are plain numbers, in mPa·s.

1) CCCCn1cc[n+](CCCCCCO)c1.[Cl-] [1-butyl-3-(6-hydroxyhexyl)-1H-imidazolium chloride]; 89.4
2) CCn1cc[n+](CCCCCCO)c1.[Cl-] [1-ethyl-3-(6-hydroxyhexyl)-1H-imidazolium chloride]; 67.8
3) Cn1cc[n+](CCCCCCO)c1.[Cl-] [3-(6-hydroxyhexyl)-1-methylimidazolium chloride]; 60.6

Note: attention shifts to another entry.
stdin: Look up viscosity of OCCCCCCn1cc[nH+]c1.[Cl-] [1-(6-hydroxyhexyl)imidazolium chloride] and report it.
stdout: 48.9

====

Conditions: 353.15 K; 101.33 kPa; Liquid
Numbers after ± are expanded uncertainties.
Could you please report measured viscosity for the items listed next?
The reply should consist of the numeric value with the unit placed after it.

1. CCCCn1cc[n+](CCCCCCO)c1.[Cl-] [1-butyl-3-(6-hydroxyhexyl)-1H-imidazolium chloride]; 65.3 ± 1.1 mPa·s
2. OCCCCCCn1cc[nH+]c1.[Cl-] [1-(6-hydroxyhexyl)imidazolium chloride]; 35 ± 0.6 mPa·s
3. CCn1cc[n+](CCCCCCO)c1.[Cl-] [1-ethyl-3-(6-hydroxyhexyl)-1H-imidazolium chloride]; 49.1 ± 0.8 mPa·s

Note: attention shifts to another entry.
stdin: Look up viscosity of Cn1cc[n+](CCCCCCO)c1.[Cl-] [3-(6-hydroxyhexyl)-1-methylimidazolium chloride] and report it.
stdout: 43.8 ± 0.7 mPa·s

====

Could you please report measured mass density for the items listed next?
Conditions: 343.15 K; 101.33 kPa; Liquid; Vibrating tube method
One number for each entry, in kg/m3.

Parameter requested: mass density. Apply to each item below.
1. CCCCn1cc[n+](CCCCCCO)c1.[Cl-] [1-butyl-3-(6-hydroxyhexyl)-1H-imidazolium chloride]
2. Cn1cc[n+](CCCCCCO)c1.[Cl-] [3-(6-hydroxyhexyl)-1-methylimidazolium chloride]
3. OCCCCCCn1cc[nH+]c1.[Cl-] [1-(6-hydroxyhexyl)imidazolium chloride]

stdout:
1041.73
1098.14
1112.84

stdin: Look up mass density of CCn1cc[n+](CCCCCCO)c1.[Cl-] [1-ethyl-3-(6-hydroxyhexyl)-1H-imidazolium chloride] and report it.
stdout: 1080.43

====

Could you please report measured refractive index for the items listed next?
Assay: refractive index (Na D-line) (dimensionless)
Conditions: 323.15 K; 101.33 kPa; Liquid; Standard Abbe refractometry
Give bare numbers.

1) Cn1cc[n+](CCCCCCO)c1.[Cl-] [3-(6-hydroxyhexyl)-1-methylimidazolium chloride]; 1.5028
2) OCCCCCCn1cc[nH+]c1.[Cl-] [1-(6-hydroxyhexyl)imidazolium chloride]; 1.5015
3) CCn1cc[n+](CCCCCCO)c1.[Cl-] [1-ethyl-3-(6-hydroxyhexyl)-1H-imidazolium chloride]; 1.5037

Note: attention shifts to another entry.
stdin: Look up refractive index of CCCCn1cc[n+](CCCCCCO)c1.[Cl-] [1-butyl-3-(6-hydroxyhexyl)-1H-imidazolium chloride] and report it.
stdout: 1.5054

====

Conditions: 303.15 K, Pendant drop shape
PARAMETER: surface tension liquid-gas (mN/m)
Numbers only, in mN/m.

1) Cn1cc[n+](CCCCCCO)c1.[Cl-] [3-(6-hydroxyhexyl)-1-methylimidazolium chloride]; 48.75

Parameter requested: surface tension liquid-gas. Apply to each item below.
1. OCCCCCCn1cc[nH+]c1.[Cl-] [1-(6-hydroxyhexyl)imidazolium chloride]
2. CCn1cc[n+](CCCCCCO)c1.[Cl-] [1-ethyl-3-(6-hydroxyhexyl)-1H-imidazolium chloride]
3. CCCCn1cc[n+](CCCCCCO)c1.[Cl-] [1-butyl-3-(6-hydroxyhexyl)-1H-imidazolium chloride]

stdout:
[50.05, 41.3, 30.8]

====

Conditions: 318.15 K, Pendant drop shape
PARAMETER: surface tension liquid-gas (mN/m)
Answers are plain numbers, in mN/m.

1. OCCCCCCn1cc[nH+]c1.[Cl-] [1-(6-hydroxyhexyl)imidazolium chloride]; 46.4
2. CCCCn1cc[n+](CCCCCCO)c1.[Cl-] [1-butyl-3-(6-hydroxyhexyl)-1H-imidazolium chloride]; 27.3

Parameter requested: surface tension liquid-gas. Apply to each item below.
1. Cn1cc[n+](CCCCCCO)c1.[Cl-] [3-(6-hydroxyhexyl)-1-methylimidazolium chloride]
2. CCn1cc[n+](CCCCCCO)c1.[Cl-] [1-ethyl-3-(6-hydroxyhexyl)-1H-imidazolium chloride]

stdout:
45.35
37.4

====

Could you please report measured viscosity for the items listed next?
Conditions: 308.15 K; 101.33 kPa; Liquid
Numbers after ± are expanded uncertainties.
The reply should consist of the numeric value with the unit placed after it.

1) CCCCn1cc[n+](CCCCCCO)c1.[Cl-] [1-butyl-3-(6-hydroxyhexyl)-1H-imidazolium chloride]; 515.8 ± 49 mPa·s
2) OCCCCCCn1cc[nH+]c1.[Cl-] [1-(6-hydroxyhexyl)imidazolium chloride]; 245.6 ± 16 mPa·s
3) Cn1cc[n+](CCCCCCO)c1.[Cl-] [3-(6-hydroxyhexyl)-1-methylimidazolium chloride]; 357.6 ± 29 mPa·s

stdin: Look up viscosity of CCn1cc[n+](CCCCCCO)c1.[Cl-] [1-ethyl-3-(6-hydroxyhexyl)-1H-imidazolium chloride] and report it.
stdout: 431.3 ± 38 mPa·s

====

Settings: 353.15 K; 101.33 kPa; Liquid; Vibrating tube method
PARAMETER: mass density (kg/m3)
One number for each entry, in kg/m3.

1. CCn1cc[n+](CCCCCCO)c1.[Cl-] [1-ethyl-3-(6-hydroxyhexyl)-1H-imidazolium chloride]; 1075.27
2. OCCCCCCn1cc[nH+]c1.[Cl-] [1-(6-hydroxyhexyl)imidazolium chloride]; 1107.03
3. CCCCn1cc[n+](CCCCCCO)c1.[Cl-] [1-butyl-3-(6-hydroxyhexyl)-1H-imidazolium chloride]; 1036.32

Note: attention shifts to another entry.
stdin: Look up mass density of Cn1cc[n+](CCCCCCO)c1.[Cl-] [3-(6-hydroxyhexyl)-1-methylimidazolium chloride] and report it.
stdout: 1092.92

====

Could you please report measured viscosity for the items listed next?
Details: 303.15 K; 101.33 kPa; Liquid
Answers are plain numbers, in mPa·s.

Known results for compounds:
1. OCCCCCCn1cc[nH+]c1.[Cl-] [1-(6-hydroxyhexyl)imidazolium chloride]; 320.1
2. Cn1cc[n+](CCCCCCO)c1.[Cl-] [3-(6-hydroxyhexyl)-1-methylimidazolium chloride]; 489.7
3. CCn1cc[n+](CCCCCCO)c1.[Cl-] [1-ethyl-3-(6-hydroxyhexyl)-1H-imidazolium chloride]; 604.5

Note: attention shifts to another entry.
stdin: Look up viscosity of CCCCn1cc[n+](CCCCCCO)c1.[Cl-] [1-butyl-3-(6-hydroxyhexyl)-1H-imidazolium chloride] and report it.
stdout: 707

====

Conditions: 318.15 K; 101.33 kPa; Liquid
PARAMETER: viscosity (mPa·s)
Numbers only, in mPa·s.

1. OCCCCCCn1cc[nH+]c1.[Cl-] [1-(6-hydroxyhexyl)imidazolium chloride]; 140.6
2. Cn1cc[n+](CCCCCCO)c1.[Cl-] [3-(6-hydroxyhexyl)-1-methylimidazolium chloride]; 188
3. CCCCn1cc[n+](CCCCCCO)c1.[Cl-] [1-butyl-3-(6-hydroxyhexyl)-1H-imidazolium chloride]; 271.5

Note: attention shifts to another entry.
stdin: Look up viscosity of CCn1cc[n+](CCCCCCO)c1.[Cl-] [1-ethyl-3-(6-hydroxyhexyl)-1H-imidazolium chloride] and report it.
stdout: 217.7

====

Experiment: refractive index (Na D-line) (dimensionless)
Settings: 333.15 K; 101.33 kPa; Liquid; Standard Abbe refractometry
PARAMETER: refractive index
Numbers only.

Known results for molecules:
1. CCCCn1cc[n+](CCCCCCO)c1.[Cl-] [1-butyl-3-(6-hydroxyhexyl)-1H-imidazolium chloride]; 1.5028
2. OCCCCCCn1cc[nH+]c1.[Cl-] [1-(6-hydroxyhexyl)imidazolium chloride]; 1.4989
3. CCn1cc[n+](CCCCCCO)c1.[Cl-] [1-ethyl-3-(6-hydroxyhexyl)-1H-imidazolium chloride]; 1.5011

stdin: Look up refractive index of Cn1cc[n+](CCCCCCO)c1.[Cl-] [3-(6-hydroxyhexyl)-1-methylimidazolium chloride] and report it.
stdout: 1.5002

Sourced from the NIST ThermoML archive (doi:10.1021/je200589f)
